- subject.of.test: human PI 3-kinase p120γ (Homo sapiens, UniProt P48736)
- Construct: purchased Millipore Corporation
- Sequence (P48736 whole entry): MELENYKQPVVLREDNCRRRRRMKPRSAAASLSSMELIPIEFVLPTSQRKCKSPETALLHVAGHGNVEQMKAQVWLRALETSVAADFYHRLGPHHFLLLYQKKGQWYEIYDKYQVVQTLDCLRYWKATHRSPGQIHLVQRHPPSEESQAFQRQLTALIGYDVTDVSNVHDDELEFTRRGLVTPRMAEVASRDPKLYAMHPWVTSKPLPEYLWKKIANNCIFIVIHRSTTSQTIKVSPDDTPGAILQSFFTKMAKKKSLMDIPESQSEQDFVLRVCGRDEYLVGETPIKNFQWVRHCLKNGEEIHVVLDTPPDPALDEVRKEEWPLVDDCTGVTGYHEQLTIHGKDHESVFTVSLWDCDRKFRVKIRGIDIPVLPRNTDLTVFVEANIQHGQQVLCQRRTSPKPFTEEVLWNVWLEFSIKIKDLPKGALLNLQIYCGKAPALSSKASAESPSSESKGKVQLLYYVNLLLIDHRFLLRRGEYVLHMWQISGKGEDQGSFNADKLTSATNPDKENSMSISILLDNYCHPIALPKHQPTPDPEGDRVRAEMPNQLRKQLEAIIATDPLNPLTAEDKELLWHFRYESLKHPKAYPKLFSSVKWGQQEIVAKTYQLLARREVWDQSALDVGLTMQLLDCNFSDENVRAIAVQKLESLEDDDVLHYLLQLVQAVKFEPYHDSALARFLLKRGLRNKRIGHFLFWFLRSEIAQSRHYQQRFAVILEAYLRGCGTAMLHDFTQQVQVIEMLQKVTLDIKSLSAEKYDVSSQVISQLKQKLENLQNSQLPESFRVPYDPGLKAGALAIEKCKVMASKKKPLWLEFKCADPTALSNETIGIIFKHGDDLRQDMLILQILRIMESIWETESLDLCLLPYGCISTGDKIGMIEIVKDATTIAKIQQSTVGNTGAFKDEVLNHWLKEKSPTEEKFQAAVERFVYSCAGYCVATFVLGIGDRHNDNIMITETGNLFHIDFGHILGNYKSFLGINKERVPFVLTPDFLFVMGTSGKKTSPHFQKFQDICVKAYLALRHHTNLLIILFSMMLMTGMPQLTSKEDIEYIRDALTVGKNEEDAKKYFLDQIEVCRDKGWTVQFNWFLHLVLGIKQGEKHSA
- assay.overview: PI 3-kinase p120γ enzyme activity inhibition test
- Format: biochemical
- experimental.setup: ATP 10.0 μM, PIP2-PS 5.0 μM, 30° C., 2 hours; read-out: PI3Kγ (IC50 value class)
pIC50: −log10 of the molar value.
Overview of reported pIC50 across a group of compounds:

Examples with their reported pIC50 follow.
{"molecule.smiles": "CC(=O)Nc1nc(C)c(-c2nc(CC(C)C)no2)s1", "value.kind": "pIC50", "test.result": "> 7.00"}
{"molecule.smiles": "CCOC(=O)CCNC(=O)Nc1nc(C)c(-c2nc(-c3cccnc3)no2)s1", "value.kind": "pIC50", "test.result": "> 7.00"}

We now examine a further compound.
Query :: Need pIC50 of `CC(=O)Nc1nc(C)c(-c2nc(C(C)(C)CO)no2)s1` , thanks.
Result :: > 7.00
